- System: HIF1A
- Test summary: HeLa, 100 nM transfected, 24 h, mean of 3
- Setup conditions: ASO
Bases are written 5' to 3'; sugars and linkages follow in the same order, as letters with counts (s phosphorothioate, o phosphodiester; PS: all linkages phosphorothioate). C may stand for cytosine or 5-methylcytosine; the collection does not tell. l = locked nucleic acid (LNA); d = 2'-deoxy (DNA)
Decision: caspase activation (% of PBS control) compared against 300; not below it gives yes (1), below it gives no (0).

Q. Dear colleague, could you confirm whether GTTACTGCCTTCTTAC (sugars l4 d7 l1 d1 l3, PS) has caspase activation (% of PBS control) at or above 300?
A. no (0)

Q. Does the sequence TGGCAAGCATCCTGTA (sugars l5 d6 l2 d1 l2, PS) have recorded caspase activation (% of PBS control) that is 300 or more?
A. yes (1)

Q. API: above_or_equal(metric=caspase activation (% of PBS control), cutoff=300) for item TGGCAAGCATCCT (sugars l2 d8 l3, PS)
A. yes (1)

Q. Is reported caspase activation (% of PBS control) greater than or equal to 300 here: GTTACTGCCTTCTTAC (sugars lddllddddddlldll, PS)
A. no (0)

Q. In plain terms: is recorded caspase activation (% of PBS control) at least 300 for GTTACTGCCTTCTTAC (sugars l1 d2 l1 d9 l3, PS) ?
A. no (0)

Q. Is reported caspase activation (% of PBS control) greater than or equal to 300 here: TGGCAAGCATCCTGTA (sugars l1 d2 l1 d10 l2, PS)
A. no (0)

Q. Identify whether the reported caspase activation (% of PBS control) of the following sequence is 300 or greater: TGGCAAGCATCCTGTA (sugars l1 d1 l2 d8 l4, PS)
A. yes (1)

Q. Could you verify whether the entry GGCAAGCATCCTG (sugars l3 d7 l1 d1 l1, PS) shows caspase activation (% of PBS control) of no less than 300?
A. yes (1)

Q. Reported caspase activation (% of PBS control) reaches at least 300 for ACTGCCTTCTTAC (sugars l2 d10 l1, PS) ?
A. no (0)

Q. Check this sequence for caspase activation (% of PBS control) at or above 300: TGGCAAGCATCCTGTA (sugars l2 d10 l4, PS)
A. yes (1)

Q. Decide: caspase activation (% of PBS control) of TTACTGCCTTCTT (sugars l1 d9 l1 d1 l1, PS) >= 300?
A. no (0)

----------
Hi there, I'd appreciate the recorded caspase activation (% of PBS control) for every entry that follows.
- System: HIF1A
- Test summary: HeLa, 100 nM transfected, 24 h, mean of 3
- Setup conditions: ASO
Bases are written 5' to 3'; sugars and linkages follow in the same order, as letters with counts (s phosphorothioate, o phosphodiester; PS: all linkages phosphorothioate). C may stand for cytosine or 5-methylcytosine; the collection does not tell. l = locked nucleic acid (LNA); d = 2'-deoxy (DNA)

For GTTACTGCCTTCTTAC (sugars llddlddddddlddll, PS) the sequence record lists caspase activation (% of PBS control) as 193

GET /value?item= TGGCAAGCATCCTGTA (sugars lldldddddddllldl, PS) &field=caspase activation (% of PBS control) returns 419

Lab note: GGCAAGCATCCTG (sugars l2 d1 l1 d7 l2, PS) gave caspase activation (% of PBS control) of 560

In plain terms, GTTACTGCCTTCTTAC (sugars ldddlddddddldldl, PS) has a documented caspase activation (% of PBS control) of 161

Briefly, caspase activation (% of PBS control) measured for TGGCAAGCATCCTGTA (sugars lddldddddddlddll, PS) : 271

Record TGGCAAGCATCCTGTA (sugars l4 d11 l1, PS) , field caspase activation (% of PBS control): 422
